Kindly supply the reported Inhibition of ROS production in neuro 2A cells, 10 μM (inhibition) values for the records listed here.
- Tested on: Neuro2A cells
- ASSAY_NOTES: Inhibition of ROS production in Neuro2A cells (H2O2-induced, DCFH-DA fluorescence)
- Format: cell-based
- RUN_PARAMETERS: compound 10 μM, ROS induced with 0.2 mM H2O2
One number for each entry, in %.

[[record]]
compound = "CCCCc1ccc(OC2CC3CCC(C2)N3S(=O)(=O)c2c(C)n[nH]c2C)cc1 (stereo not drawn) [Example 54]"
measured = 114

[[record]]
compound = "CCCCc1ccc(OC2CC3CCC(C2)N3S(=O)(=O)c2c(C)n[nH]c2C)cc1 (stereo not drawn) [Example 03]"
measured = 136

[[record]]
compound = "Cc1n[nH]c(C)c1S(=O)(=O)N1C2CCC1CC(Oc1ccc(C#N)cc1)C2 (stereo not drawn) [Example 08]"
measured = 77

[[record]]
compound = "Cc1n[nH]c(C)c1S(=O)(=O)N1C[C@H]2CCC[C@@H](C1)[C@H]2Oc1cnccn1"
measured = 21

[[record]]
compound = "Cc1n[nH]c(C)c1S(=O)(=O)N1C[C@H]2CCC[C@@H](C1)[C@@H]2Oc1cnccn1"
measured = 27


Enquiry: Write down the reported Inhibition of ROS production in neuro 2A cells, 10 μM (inhibition) of Cc1n[nH]c(C)c1S(=O)(=O)N1C2CCC1CC(Oc1ccc(C#N)cc1)C2 (stereo not drawn) [Example 09] , test system: Neuro2A cells.
Return: 56

The origin of these recorded values is patent US10865194B2.
